Tested on: PF3D7_0420300 AP2 domain 1 (GST-tagged)
protocol details: gcPBM binding intensity (ln(normalized median fluorescence intensity)); higher = stronger DNA binding
The full ranking holds about 25,000 sequences; the median of “ln(normalized median fluorescence intensity)” is about 9.3, and the highest 2% start at about 10. The sample as a whole holds a higher share of the highest values than the screen did.
The label depends only on gcPBM binding intensity (ln): true (1) if it is at least 10, false (0) if it is smaller.

Query string: Does the reported gcPBM binding intensity (ln) for AATTAAAATAATAATACACACATCATAGAAAAAGAC [CACACA_site292] fall at or above the 10 mark?
Result string: true (1)

Query string: Textbook exercise: given the entry CCTAAATAATATCTATCACACACGCATATATACATA [CACACA_site8838] , state whether its gcPBM binding intensity (ln) is greater than or equal to 10.
Result string: false (0)

Query string: Is it the case that TGAAAAAAGAAAAATACACACATATAATATAATATA [CACACA_site2255] has gcPBM binding intensity (ln) reaching or exceeding 10?
Result string: false (0)

Query string: Does TAAAAGAAATAATATACACACATATATAAAAATAAA [CACACA_site1329] have a reported gcPBM binding intensity (ln) of at least 10?
Result string: false (0)
